target: AR protein (Homo sapiens, UniProt P10275, T878A); construct: host or cells: LNCaP FGC; test: AR protein degradation in LNCaP cells (Western blot); type: cell-based; settings: 100 nM, 8 hours
Listing: percent AR protein degradation at a fixed concentration at 0.1 µM of selected molecules
Could you give the number and then its unit, please?

molecule: N#Cc1cc2c(cc1Cl)OC1(CCN(c3ccc(C(=O)N4CCC(CN5CCC6(CCc7cc(C(=O)N[C@H]8CCC(=O)NC8=O)c(F)cc7O6)CC5)CC4)cc3)CC1)CO2 [A-P-46]
assay-system: AR protein (Homo sapiens, UniProt P10275, T878A)
observed-measurement: 15%
//
molecule: C[C@H]1CC2(CCN(c3ccc(N4CCC(CN5CCC6(CC5)CCC5(CC6)COc6c5ccc5c6CN(C6CCC(=O)NC6=O)C5=O)CC4)cc3)CC2)CN1c1ccc(C#N)c(Cl)c1 (stereo partly shown) [A-P-8]
assay-system: AR protein (Homo sapiens, UniProt P10275, T878A)
observed-measurement: 63%
//
molecule: C[C@H]1CC2(CCN(c3ccc(C(=O)N4CCC(CN5CCC6(CCc7cc(C(=O)N[C@H]8CCC(=O)NC8=O)c(F)cc7O6)CC5)CC4)cc3)CC2)CN1c1ccc(C#N)c(Cl)c1 [A-P-35]
assay-system: AR protein (Homo sapiens, UniProt P10275, T878A)
observed-measurement: 70%

Reported percent AR protein degradation at a fixed concentration at 0.1 µM for C[C@H]1CC2(CCN(c3ccc(N4CCC(CN5CCN6c7ccc(C(=O)N[C@H]8CCC(=O)NC8=O)c(F)c7OC[C@H]6C5)CC4)cc3)CC2)CN1c1ccc(C#N)c(Cl)c1 [A-P-61] was 79%

---

Listing: IC50 of selected molecules
Target: CRBN protein (Homo sapiens, UniProt Q96SW2)
Assay: Binding activity to E3 ubiquitin ligase CRBN (HTRF competitive binding kit, Thalidomide-Red)
Experimental: Binding activity of the E3 ligase inhibitor disclosed in the present invention to E3 ubiquitin ligase CRBN CRBN binding activity test kit (CEREBLON BINDING KITS (PE, 64BD CRBN PEG). The detection is based on homogeneous time-resolved fluorescence (HTRF) technology. […] The ratio of the acceptor and donor emission signals was calculated for each individual well. IC50 values was calculated based on compound concentration, Ratio, and coefficient of variation using GraphPad Prism.
# value in µM; strip the unit string

Record excerpt, results attached:
molecule: O=C1CCC(N2Cc3c(ccc4c3OCC43CCC4(CCNCC4)CC3)C2=O)C(=O)N1 (centres unmarked)
IC50, µM: 0.56
--
molecule: O=C1CC[C@H](NC(=O)c2ccc3c(c2)OC[C@@H]2CNCCN32)C(=O)N1
IC50, µM: 40.3
--
molecule: COc1cc2c(cc1C(=O)N[C@H]1CCC(=O)NC1=O)OCC21CCNCC1
IC50, µM: 24.5
--
molecule: Cn1c(=O)n(C2CCC(=O)NC2=O)c2ccc3c(c21)C1(CCNCC1)CO3 (centres unmarked)
IC50, µM: 2.3

// next item, IC50 requested
Reported IC50 for `COc1cc2c(cc1C(=O)N[C@H]1CCC(=O)NC1=O)COC[C@H]1CNCCN21` was 22.4

---

Target: ERα (Homo sapiens)
Sequence (P03372 1-595): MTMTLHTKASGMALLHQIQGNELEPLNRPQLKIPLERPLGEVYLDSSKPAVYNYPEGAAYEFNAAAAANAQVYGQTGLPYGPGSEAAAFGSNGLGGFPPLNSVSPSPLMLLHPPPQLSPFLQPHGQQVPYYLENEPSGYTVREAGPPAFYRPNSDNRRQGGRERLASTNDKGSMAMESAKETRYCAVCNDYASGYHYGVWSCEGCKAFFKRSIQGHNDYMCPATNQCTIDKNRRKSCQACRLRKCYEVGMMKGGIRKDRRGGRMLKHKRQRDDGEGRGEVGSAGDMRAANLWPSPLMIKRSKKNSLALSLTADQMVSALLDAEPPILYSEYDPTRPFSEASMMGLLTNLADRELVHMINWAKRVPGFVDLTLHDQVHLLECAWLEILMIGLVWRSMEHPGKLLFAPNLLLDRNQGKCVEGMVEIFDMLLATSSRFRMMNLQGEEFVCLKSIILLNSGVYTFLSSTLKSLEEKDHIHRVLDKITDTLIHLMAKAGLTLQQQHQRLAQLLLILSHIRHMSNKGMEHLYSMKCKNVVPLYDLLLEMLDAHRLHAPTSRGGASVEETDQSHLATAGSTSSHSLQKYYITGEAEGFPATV
Assay: ERα degradation in T-47D cells (Western blot)
Assay type: cell-based
Conditions: 1nM, 4 hours
Could you label it 1 (yes) if measured Degradation rate of ERα in T-47D cells (%) is 20% or higher, and 0 (no) otherwise?

molecule: Cn1c(=O)n(C2CCC(=O)NC2=O)c2ccc3c(c21)OCC31CCN(C2CC3(CCN(c4ccc([C@@H]5c6ccc(O)cc6CC[C@@H]5c5ccccc5)cc4)CC3)C2)CC1 (some centres unmarked) [ER-P-15]
assay-system: ERα (Homo sapiens)
class-name: 1 (yes)

molecule: Cn1c(=O)n(C2CCC(=O)NC2=O)c2cc3c(cc21)C1(CCN(C2CCC4(CC2)CN(c2ccc([C@@H]5c6ccc(O)cc6CC[C@@H]5c5ccccc5)cc2)C4)CC1)CO3 (some centres unmarked) [ER-P-59]
assay-system: ERα (Homo sapiens)
class-name: 1 (yes)

molecule: Cn1c(=O)n(C2CCC(=O)NC2=O)c2ccc3c(c21)C1(CCN(C2CCC4(CC2)CN(c2ccc([C@@H]5c6ccc(O)cc6CC[C@@H]5c5ccccc5)cc2)C4)CC1)CO3 (some centres unmarked) [ER-P-19]
assay-system: ERα (Homo sapiens)
class-name: 0 (no)

molecule: COc1c(C(=O)N[C@H]2CCC(=O)NC2=O)ccc2c1OC[C@H]1CN(CC3CCC(OC4CCN(c5ccc([C@@H]6c7ccc(O)cc7CC[C@@H]6c6ccccc6)cc5)CC4)CC3)CCN21 (some centres unmarked) [ER-P-48]
assay-system: ERα (Homo sapiens)
class-name: 0 (no)

molecule: Cn1c(=O)n(C2CCC(=O)NC2=O)c2ccc3c(c21)OCC31CCN(CC2CCN(C(=O)C3CCN(c4ccc([C@@H]5c6ccc(O)cc6CC[C@@H]5c5ccccc5)cc4)CC3)CC2)CC1 (some centres unmarked) [ER-P-63]
assay-system: ERα (Homo sapiens)
class-name: 1 (yes)

molecule: O=C1CCC(Nc2ccc3c(c2)COC[C@H]2CN(C[C@H]4CC[C@@H](OC5CCN(c6ccc([C@@H]7c8ccc(O)cc8CC[C@@H]7c7ccccc7)cc6)CC5)CC4)CCN32)C(=O)N1 (some centres unmarked) [ER-P-34]
assay-system: ERα (Homo sapiens)
class-name: 0 (no)

Request: Given COc1cc2c(cc1C(=O)N[C@H]1CCC(=O)NC1=O)N(C)C[C@H]1CN(CC3CCC(OC4CCN(c5ccc([C@@H]6c7ccc(O)cc7CC[C@@H]6c6ccccc6)cc5)CC4)CC3)CCN21 (some centres unmarked) [ER-P-49] , state whether its Degradation rate of ERα in T-47D cells (%) is at least 20%.
Result: 0 (no)

Request: Given O=C1CCC(Nc2ccc3c(c2)OCC32CCN(C[C@H]3CC[C@@H](OC4CCN(c5ccc([C@@H]6c7ccc(O)cc7CC[C@@H]6c6ccccc6)cc5)CC4)CC3)CC2)C(=O)N1 (some centres unmarked) [ER-P-31] , state whether its Degradation rate of ERα in T-47D cells (%) is at least 20%.
Result: 1 (yes)

Request: Given O=C1CCC(Nc2ccc3c(c2)OC2(CC3)CCN(C[C@H]3CC[C@@H](OC4CCN(c5ccc([C@@H]6c7ccc(O)cc7CC[C@@H]6c6ccccc6)cc5)CC4)CC3)CC2)C(=O)N1 (some centres unmarked) [ER-P-43] , state whether its Degradation rate of ERα in T-47D cells (%) is at least 20%.
Result: 0 (no)

Request: Given O=C1CCC(N2Cc3c(ccc4c3OCC43CCC4(CC3)CN(C(=O)C3CCN(c5ccc([C@@H]6c7ccc(O)cc7CC[C@@H]6c6ccccc6)cc5)CC3)C4)C2=O)C(=O)N1 (some centres unmarked) [ER-P-4] , state whether its Degradation rate of ERα in T-47D cells (%) is at least 20%.
Result: 1 (yes)

Request: Given O=C1CCC(Nc2ccc3c(c2)OC2(CC3)CN(C[C@H]3CC[C@@H](OC4CCN(c5ccc([C@@H]6c7ccc(O)cc7CC[C@@H]6c6ccccc6)cc5)CC4)CC3)C2)C(=O)N1 (some centres unmarked) [ER-P-33] , state whether its Degradation rate of ERα in T-47D cells (%) is at least 20%.
Result: 0 (no)
